B1: Pistol ribozyme (parent)
chain: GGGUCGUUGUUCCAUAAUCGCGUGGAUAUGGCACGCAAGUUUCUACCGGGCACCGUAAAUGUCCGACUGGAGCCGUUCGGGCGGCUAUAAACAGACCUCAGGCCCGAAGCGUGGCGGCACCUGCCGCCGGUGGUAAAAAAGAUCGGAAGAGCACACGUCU

- Variants of: B1
- TEST: aptazyme ON/OFF ratio, guanine; higher = stronger switching; co-transcriptional cleavage with and without guanine
TEST_READOUT: aptazyme ON/OFF ratio
Reply briefly: the number, and no unit.

Reported aptazyme ON/OFF ratio for G9C U10C U11G C12G was 1.09

***
aptazyme ON/OFF ratio reported for this variant U7G U8G U10G C12U : 1.54

In plain terms, U8G G9A U10C U11G C12A C13U has a documented aptazyme ON/OFF ratio of 1.16

Form: variant = U7G U8G G9C U10A U11A C12A C13U ; aptazyme ON/OFF ratio = 1.04

variant G9C U10C C12A C13U , aptazyme ON/OFF ratio observed: 1.05

aptazyme ON/OFF ratio recorded for this variant, U7G U8A U10C U11A C13U , is 1.44
